System: SK-MEL-28 melanoma
Assay: NCI tumour cell line growth inhibition, 48 h; in the data active = GI50 below about 0.43 µM; inactive = the rest
Possible outcomes: TRUE for active, FALSE for inactive

STRUCTURE_SMILES	LABEL_VALUE
O=C(c1ccc(Nc2nccc(NCCCCNc3ccnc4cc(Cl)ccc34)n2)cc1)N1CCCCC1	FALSE
O=C(COc1cccc(/C=C2\Oc3ccc4ccccc4c3C2=O)c1)c1ccc([N+](=O)[O-])cc1	FALSE
CC(=O)/C=C/c1ccc(N(CCO)Cc2ccc(C(C)(C)C)cc2)cc1	FALSE
Nc1cc(N)c2nc(-c3ccccc3)c(NCc3ccc(Cl)c(Cl)c3)nc2c1	FALSE
CCOC(=O)c1cc2c(n1Cc1ccccc1OC)-c1oncc1CCC2	FALSE
CC(=O)c1ccc(Oc2c3ccccc3nc3occc23)cc1	FALSE
CC1(C)CN(CCNc2nccc(-c3c(-c4cccc(O)c4)nc4sccn34)n2)S(=O)(=O)N1	TRUE
